B1: glmS ribozyme (parent)
chain: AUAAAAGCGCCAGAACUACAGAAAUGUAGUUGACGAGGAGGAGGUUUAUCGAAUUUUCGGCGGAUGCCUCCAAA

Variants of: B1
method-notes: self-cleavage kobs at 10000 uM GlcN6P; higher = faster cleavage; RNA array
assay-context: with glucosamine-6-phosphate
Variants at the floor of the assay were thinned out.

{"columns": ["mutation-string", "self-cleavage kobs at 10000 uM GlcN6P"],
 "data": [
  ["A33G G40C C70U", "< 1e-05 s⁻¹"],
  ["G38A G60U U69G", "< 1e-05 s⁻¹"],
  ["A39C U47A", "0.00409 s⁻¹"],
  ["A12G U57A G60U", "< 1e-05 s⁻¹"],
  ["G32C G40A", "1.99e-05 s⁻¹"],
  ["G35U U46G", "< 1e-05 s⁻¹"],
  ["A15U G41U A48U U55C", "< 1e-05 s⁻¹"],
  ["C8G G60A", "< 1e-05 s⁻¹"],
  ["U47C C68G", "6.6e-05 s⁻¹"],
  ["A12U C50A", "9.58e-05 s⁻¹"],
  ["U46G U49A", "< 1e-05 s⁻¹"]
]}
